Tested on: PPARg DBDmut IVT, anti-PPARg (DBD mutation: PPARg1 K132A/R137A, NR concentration 270 nM)
method.notes: PBM binding z-score (relative to random genomic background probes); higher = stronger binding; sequences stand for … in GC…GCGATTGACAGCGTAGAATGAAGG
recorded.metric: PBM binding z-score
Give only the figure.

residue.string | value.reported
GATAGAGGGTCAAGGCCAGAGTACGCGTATTGAT | 0.208
TCATATAGGTAAAAGGTGAAAGTTGGTGTGGTAA | 1.67
ACTTACGGGTCAAAGAGGTTATAGCACGCGTATA | 1.26
ACTAGCCGGCCAAGTTTGGGTCACTCAAACAAAG | -0.912
CGTCAAAGTTCAACTAAGGTATCGTAAAGCACGC | 0.78

For the next question, use this sequence.
Report its PBM binding z-score with PPARg DBDmut IVT, anti-PPARg (DBD mutation: PPARg1 K132A/R137A, NR concentration 270 nM) as the test system: CAAACTACGTCAAGGTCAAAGTCGGTTTGTGCCA
0.932

###

Test system: RARb:RXRa (NR concentration 270 nM, RXRa partner concentration 90 nM)
method.notes: PBM binding z-score (relative to random genomic background probes); higher = stronger binding; sequences stand for … in GC…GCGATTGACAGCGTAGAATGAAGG
recorded.metric: PBM binding z-score
// no unit, no text: just the number

Worked examples, 5 sequences total:
residue.string | assay.system | PBM binding z-score
ATTTGTAGGTTAAGGGTCATTCAGGTTGGTTCGC | RARb:RXRa (NR concentration 270 nM, RXRa partner concentration 90 nM) | 3.9
CCTGCTACGTCAATGGTCAGCTAAAGCAGCTCGC | RARb:RXRa (NR concentration 270 nM, RXRa partner concentration 90 nM) | 0.0938
CGAACGAGGGCATGAGTTGATAGCTAATGCCGAT | RARb:RXRa (NR concentration 270 nM, RXRa partner concentration 90 nM) | 2.08
CCTACTGGGCCATCAGGTCACTGATATCAACGTT | RARb:RXRa (NR concentration 270 nM, RXRa partner concentration 90 nM) | 2.33
TCTGCTAGGTCAGTTGGTCGGCTAACGAGCTGCC | RARb:RXRa (NR concentration 270 nM, RXRa partner concentration 90 nM) | 3.2

Identify measured PBM binding z-score associated with AGAACGCGGGCACGCTGAGTTGATAGCAGAGTAG
0.31

Retrieve PBM binding z-score measured for ATCGAAAGGTCGTGAGGTGAATATACAGAAAGGC and print it.
4.12

Read off the recorded PBM binding z-score for CGAACTAGGTCAGAACAGGACAGTGACGGATGAT
2.99

###

In this section, each of the sequences is paired with its reported PBM binding z-score.
Tested on: RARa homodimer (NR concentration 270 nM)
method.notes: PBM binding z-score (relative to random genomic background probes); higher = stronger binding; sequences stand for … in GC…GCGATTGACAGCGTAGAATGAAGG

Would you please look over these solved cases?
residue.string | recorded.metric | value.reported
GCTAGTTGGTCAGTAAAAGGTCACACTCCGGTCG | PBM binding z-score | 1.9
TAGCCTAGGTCATTGGCCAGTATACCACGCGAAC | PBM binding z-score | -0.259
GCAGACAGGTGAAACGCTGGTAACTCAGGGTGGC | PBM binding z-score | -0.662
CCGACTGGGGCAGAAAGGTTATCATACCATCCGG | PBM binding z-score | -0.196
ACTAGTTGGTCAGCTGAGGTCGCACACAATTCGG | PBM binding z-score | -0.0842
TGAATGAGGTTACAGATCAGGGAACGTGGCGTCG | PBM binding z-score | 0.0673

Identify measured PBM binding z-score associated with TATACAGGGTCAGAGGCCAGAGTACGAATGTCGA
1.13

Entry ATCTCCAGGTAAAGTTCAGTGAAAGATCGATAGA needs its PBM binding z-score filled in; supply it.
1.45

Give PBM binding z-score for ATATGTAGGTTACATCCGGGTCATTCCGGCTATG
0.832

Give recorded PBM binding z-score. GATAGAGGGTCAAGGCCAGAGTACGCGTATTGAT
0.0585

Identify measured PBM binding z-score associated with CCTCGGAGGACAACAGGACGTCAGAGCTGCCAGA
-0.489

Note down PBM binding z-score recorded for CGTCCAAGGTCAGAAGGTCAGTGAAAGCGACGTG
1.32

Give a short answer stating reported PBM binding z-score for CGTCCAAGGTCAGAGAGATCAGTGAATGCCGAGT .
-0.15

Supply recorded PBM binding z-score for TATACAGGGGCAAAGGCCAGAGTACGAATGTCGA here.
0.364

Complete the entry with PBM binding z-score for CATACAGGGTCAGCTAGGCCATAGTAGGGACGGC
0.85

Kindly indicate its recorded PBM binding z-score. Item: AATATAGGGTCACTAGGCCAGAGTAGGTACGAAT
0.81

State its PBM binding z-score for this sequence: CCTGCTAGGTCATGGTCAGCTAATCTACAGTATG
0.369

Complete the entry with PBM binding z-score for GCTTACGGCTCAAAGGTTATAGCATGAATAGAAT
0.137

Item ACTCGGAGGACGAAGGTCAGAGCTACGCCAGTGA : provide PBM binding z-score
0.154

Output PBM binding z-score of AGTCAAAGTTCAGGGCGAGGTAACGTAAAGCACG
1.23

Consider the sequence ATCTCTAGGTAAAGTTCAGTAAAAGATCGATAGA and give its recorded PBM binding z-score.
2.26

Give reported PBM binding z-score value for GCTATTAGTTGAAAGCGCAACCGAATGATTCTCG
-0.0512

For the sequence CGTCCAAGGTCAACGTCAGTGAAAGAGACTCGAA , give its measured PBM binding z-score value.
1.2

Identify the reported PBM binding z-score for the following entry. TCATATAGGTAAAGGTGAAATTCGAACGATATGA
0.597

Complete the entry with PBM binding z-score for CGAACGAGGGCATGAGTTGCTAGCAAATGCCGAT
-0.816

State its PBM binding z-score: CCTACTGGGCCAAAAAGGTCATAGATGCCGATAA
1.49

###

System: RARb homodimer (NR concentration 270 nM)
method.notes: PBM binding z-score (relative to random genomic background probes); higher = stronger binding; sequences stand for … in GC…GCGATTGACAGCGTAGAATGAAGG
recorded.metric: PBM binding z-score

residue.string | PBM binding z-score
TCTTGTAGATCAAGCAGTTTAAGAAAGCCTGAGT | -0.362

Give PBM binding z-score for GCTTACCGGTCAAAGGTTATAGCATGAATAGAAT
2.62

Identify measured PBM binding z-score associated with ACAGACAGGTGATGACGGTAACTCAGGCTATCAT
0.213

Identify PBM binding z-score associated with the sequence CGTCCAAGGTCAAGGTCAGTGACAGAGACTCGAA
5.06

Given TAGACTAGGTCATTCAGGGGCCAGTATAGAAAGC , respond with its PBM binding z-score.
3.07

Specify measured PBM binding z-score for AGAATGAGGTTATACTTAGATCAGGGAAGAAAGT .
0.8

Output PBM binding z-score of AGTCAAAGTTCACTAGGTAACGTCAGATTCAGCT
3.86

Read off the recorded PBM binding z-score for ATATGTAGGTTACCTCCGGGTCATTCAGGCTATG
3.04

Item TCTTGTAGATCAATATAGGTTAAGAAAGTGCGCT : provide PBM binding z-score
0.819

In one line, give reported PBM binding z-score of the entry TCTTGGAGGACACGAAAGGTCAGAGCTCGACATC .
4.63

Return value of PBM binding z-score for input TATCCTAGGTCATGGGCCAGTATACCACGCGAAC , no commentary.
3.35

Determine from records and report PBM binding z-score for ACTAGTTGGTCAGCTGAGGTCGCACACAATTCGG
2.35

###

Test system: PPARg DBDmut:RXRa IVT, anti-PPARg (DBD mutation: PPARg1 K132A/R137A, NR concentration 270 nM, RXRa partner concentration 90 nM)
method.notes: PBM binding z-score (relative to random genomic background probes); higher = stronger binding; sequences stand for … in GC…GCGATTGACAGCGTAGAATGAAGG
# if value of PBM binding z-score reaches 0.02, tag 1 (yes); if it stays below, tag 0 (no)

As a guide, the following entries are already answered.
residue.string | group
AGAATGAGGTTATACGTAGCTCAGGGAAGAAAGT | 1 (yes)
TAGCCTAGGTCATTCAGAGGCCAGTATAGAAAGC | 1 (yes)
GCAGAAAGGTGAAACGCAGGTAACTCAGGGTGGC | 0 (no)

Could you tell me if the measured PBM binding z-score of TGAATGAGGTTAGAAGATCAGGGAACGTTGCAAA reaches 0.02 or more?
1 (yes)

Could you please find out whether TTACCAAGGTGAGCTGAGGTCTTTGATCCAACTC has PBM binding z-score that meets 0.02 or exceeds it?
0 (no)

Can GCTATGAGTTGAAAGGGCAACCGAATGATTCTCG be said to have PBM binding z-score at or above 0.02?
0 (no)

Check the entry CGTCCAAGCTCAATGCTAGGTCAGTGAAAGCATT : does PBM binding z-score equal or exceed 0.02?
0 (no)

I'd appreciate it if you could say whether AATACAGGGTCATCGTAGGCCAGACTACGCACAG has PBM binding z-score at least equal to 0.02.
1 (yes)

Does CCTACTGGGCCACAAAAGGTCATTGATTCAGTGA have a reported PBM binding z-score of at least 0.02?
1 (yes)

Is PBM binding z-score at least 0.02? Consider GCTTACGGGTCAAAGGTTATAGCATGAATAGAAT
1 (yes)

Quick check, PBM binding z-score >= 0.02? ACTCGGACGACAAAGGTCAGAGCTACGCCAGTGA
1 (yes)

Can CCAGGCAGGTGAAAGGTAACTCAGTCTGGTACGC be said to have PBM binding z-score at or above 0.02?
0 (no)
